Data provenance: patent US20160362487A1

Biological target: T1, cynomolgus monkey IL-33 expressed with a C-terminal hexahistidine tag (cynomolgus monkey)
T1 construct: also called MfIL-33-6His; Mf-IL-33-6His
T1 chain: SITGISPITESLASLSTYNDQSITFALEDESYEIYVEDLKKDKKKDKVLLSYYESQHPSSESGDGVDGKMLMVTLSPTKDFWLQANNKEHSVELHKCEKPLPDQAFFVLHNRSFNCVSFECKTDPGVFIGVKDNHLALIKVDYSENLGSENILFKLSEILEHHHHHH
Experiment: BLI; captured MfIL-33-6His, mAb-1 step with Isotype control
propertyLabel: mAb-2 Binding to the Pre-complex of mAb-1 & MfIL-33-6xHis (nm)

binder: H4H9633P (antibody, human IgG4, V domains shown, Human IgG4 Fc (H4H)) VH: EVQLVESGGGLVQPGGSLRLSCAASGFTFSSYVMSWVRQAPGKGLEWVSSISGNGGSTNYADSVKGRFTISRDNSKNTLFLEMNSLRAEDTAVYYCAKSLGTTTTFLGFDYWGQGTLVTVSS VL: DIQMTQSPSSVSASVGDRVTITCRASQGISSWLAWYQQKPGKAPKLLIYAASSLQSGVPSRFSGSGSGTYFTLTISSLQPEDFATYYCQQANSFPLTFGGGTKVEIK
unitsLabel: nm
valueReported: 0.28
//
binder: H4H9629P (antibody, human IgG4, V domains shown, Human IgG4 Fc (H4H)) VH: EVQLVESGGGLVQPGGSLRLSCAASGFTFRSFAMSWVRQAPGKGLELVSDLRTSGGSTYYADSVKGRLTISRDNSKNTLYLQMNSLRAEDTAVYYCAKSHYSTSWFGGFDYWGQGTLVTVSS VL: DIQMTQSPSSVSASVGDRVTITCRASQGFSSWLAWYQQKPGKAPKLLIYAASSLQSGVPSRFSGSGSGTDFTLTITNLQPEDFATYYCQQANSFPLTFGGGTKVEIK
unitsLabel: nm
valueReported: 0.26
